- method-description: reversal of MRP1-mediated doxorubicin resistance, pilot screen, H69AR cells, doxorubicin co-treatment (AID 601)
- run-conditions: H69AR cells, CellTiter-Glo, 72 h; compound alone cytotoxicity; at 10 µM
Note to self: viability under 90% means rule met, ties and anything higher get rule not met.

structure-as-smiles	category-label
CCCS(=O)(=O)NCCc1cc2cc(C)c(C)cc2[nH]c1=O	rule not met
Cn1c(CN2CCOCC2)nc2cc(NC(=O)c3ccccc3Cl)ccc21	rule not met
CCOc1ccccc1Nc1ncnc2ccccc12	rule met
CCN(CCCNC(=O)c1cn(CC)c2ccc(S(=O)(=O)N(C)C)cc2c1=O)c1cccc(C)c1	rule met

###

The following molecules are shown together with reported viability values.
- method-description: reversal of MRP1-mediated doxorubicin resistance, pilot screen, H69AR cells, doxorubicin co-treatment (AID 601)
- run-conditions: H69AR cells, CellTiter-Glo, 72 h; compound alone cytotoxicity; at 10 µM
reported-endpoint: viability

molecule	assay-value
CCOC(=O)N1CCC2(CC1)CC(=O)c1c(ccc3oc(C(=O)O)c(C)c13)O2	92.3%
Cc1nn(-c2ccc(F)cc2)c2sc(C(=O)O)cc12	89.8%
O=C1CSC(=Nc2ccc(O)cc2)N1c1ccc(O)cc1	91.4%
O=C(c1cc2n(n1)C(C(F)(F)F)CC(c1ccc(Cl)cc1)N2)N1CCCC1 (centres undefined)	90.9%

###

- subject-of-test: Receptor tyrosine-protein kinase erbB-2 (Homo sapiens) (UniProt P04626)
- Sequence (P04626 whole entry, looked up): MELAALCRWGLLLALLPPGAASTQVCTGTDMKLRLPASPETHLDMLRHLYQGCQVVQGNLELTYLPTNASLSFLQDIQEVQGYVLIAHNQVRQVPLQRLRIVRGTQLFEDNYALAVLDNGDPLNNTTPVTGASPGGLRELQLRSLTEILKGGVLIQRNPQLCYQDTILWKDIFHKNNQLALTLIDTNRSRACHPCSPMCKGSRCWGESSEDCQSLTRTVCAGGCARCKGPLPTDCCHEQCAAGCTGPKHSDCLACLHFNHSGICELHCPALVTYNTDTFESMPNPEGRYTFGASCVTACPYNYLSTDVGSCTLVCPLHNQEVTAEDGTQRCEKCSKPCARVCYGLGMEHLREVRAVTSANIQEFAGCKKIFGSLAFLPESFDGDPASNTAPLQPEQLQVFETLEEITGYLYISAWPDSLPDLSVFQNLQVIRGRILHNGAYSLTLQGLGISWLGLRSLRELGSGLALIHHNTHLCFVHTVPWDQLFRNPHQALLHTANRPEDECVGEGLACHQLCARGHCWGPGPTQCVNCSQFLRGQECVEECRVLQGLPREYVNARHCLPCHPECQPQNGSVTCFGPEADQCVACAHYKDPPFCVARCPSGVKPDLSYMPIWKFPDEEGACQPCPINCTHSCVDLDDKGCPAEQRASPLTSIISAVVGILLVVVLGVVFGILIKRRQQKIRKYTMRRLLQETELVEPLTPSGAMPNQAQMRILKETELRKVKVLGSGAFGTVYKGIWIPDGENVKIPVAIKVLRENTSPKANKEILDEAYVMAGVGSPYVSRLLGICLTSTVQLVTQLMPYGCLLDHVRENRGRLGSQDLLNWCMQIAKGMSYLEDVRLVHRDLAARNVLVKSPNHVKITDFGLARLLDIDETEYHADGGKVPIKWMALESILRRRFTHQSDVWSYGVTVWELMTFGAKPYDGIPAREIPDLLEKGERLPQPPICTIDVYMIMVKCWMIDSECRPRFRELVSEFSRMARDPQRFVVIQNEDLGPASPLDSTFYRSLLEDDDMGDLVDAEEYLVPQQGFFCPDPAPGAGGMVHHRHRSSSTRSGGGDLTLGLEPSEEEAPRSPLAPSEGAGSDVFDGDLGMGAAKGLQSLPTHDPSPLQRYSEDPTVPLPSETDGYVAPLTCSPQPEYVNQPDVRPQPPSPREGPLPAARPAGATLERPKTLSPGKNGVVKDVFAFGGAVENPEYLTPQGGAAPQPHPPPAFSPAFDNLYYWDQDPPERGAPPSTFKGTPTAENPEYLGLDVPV
- method-description: reducers of endogenous Her2 protein level, primary screen, SKBR3 breast tumor cells, AlphaScreen, ATP viability (AID 461);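 on Her2 level: lower value means less Her2 protein in the cells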;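 on viability: percent of carrier control wells set as 100% viability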
- run-conditions: 18-24 h, at 10 µM, stronger effect = lower value
Active and inactive are the calls of the source.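 Rule for the calls: active = Her2 level under about 52% in both replicate screens, with viability over 70% of control (limit read from the data); inconclusive = Her2 under the limit in one screen only, or viability under 70%; inactive = Her2 level above the set limit.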

compound	Her2 level
COCCOC(=O)c1c(C)nc(SCC(=O)Nc2ccc(OC)cc2)c(C#N)c1-c1ccco1	87.5% (inactive)
COC(=O)c1cc(NC(=O)C2COc3ccccc3O2)cc(C(=O)OC)c1 (centres undefined)	86% (inactive)
O=C(CSCCSCC(=O)c1ccco1)c1ccco1	96% (inactive)
COc1cccc(C2C(C(=O)c3cc4ccccc4o3)=C(O)C(=O)N2CCN(C)C)c1OC (centres undefined)	94.5% (inactive)

###

- method-description: reducers of endogenous Her2 protein level, primary screen, SKBR3 breast tumor cells, AlphaScreen, ATP viability (AID 461);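 on viability: percent of carrier control wells set as 100% viability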
- run-conditions: 18-24 h, measured here: SKBR3 viability, ATP luminescence, at 10 µM

compound	viability (%)
CS(=O)(=O)N1CCN(CC2CC3C=CC2C3)CC1 (stereo not drawn)	110
O=C(COc1nnnc2ccccc12)N1CCCc2ccccc21	97
O=S(=O)(c1ccc(F)c(Cl)c1)N1CCCC1	100
COc1ccc(S(=O)(=O)N2CCN(CC(=O)Nc3ccc(F)c(F)c3)CC2)cc1	88.5
CCOc1ccc(S(=O)(=O)Nc2cccc(Cl)c2)cc1	86
CCOc1ccc(CN2CCN(c3cc(C)nc4c5c(C)cc(C)nc5nn34)CC2)cc1	80
C=CCOc1ccc(C2C(C(=O)c3ccco3)=C(O)C(=O)N2Cc2cccnc2)cc1 (stereo not drawn)	108
COCCn1nnnc1C(C(C)C)N1CCN(C(=O)c2ccco2)CC1 (stereo not drawn)	92.5
Cc1ccc2oc(C(=O)Nc3c(C)n(C)n(-c4ccccc4)c3=O)c(C)c2c1	84.5
CCn1c(CC(=O)Nc2cccc(OC)c2)nnc1SCC(=O)Nc1nccs1	98
Cc1cc2c(cc1C)-c1nnnn1C(C)(C)C2	110
C=CCN1C(=O)/C(=C2\SC(N3CCOCC3)=NC2=O)c2cc(Br)ccc21	82.5
OC(CN1CCN(c2ccccn2)CC1)Cn1c2ccccc2c2ccccc21 (stereo not drawn)	100
CCN1C(=O)CC(C(=O)Nc2ccc(F)cc2)SC1=Nc1ccc2c(c1)OCO2 (stereo not drawn)	136
O=C(NCCCCNC(=O)c1cccnc1)c1cccnc1	95
O=C(COC(=O)c1ccccc1Oc1ccccc1)NC1CCS(=O)(=O)C1 (stereo not drawn)	107
COc1cc(CN(C)CC(=O)c2[nH]c(C)c(C(C)=O)c2C)ccc1OC(F)F	104
CC(=O)c1cccc(NC(=O)N2CCCC2C(=O)NCc2ccc(C)cc2)c1 (stereo not drawn)	104
COc1ccc(OCC(=O)N2CCN(C(=O)Cc3ccccc3)CC2)cc1	90
COc1cccc(-c2cc(C(=O)Nc3cc(OC)c(OC)c(OC)c3)no2)c1	106
CCCS(=O)(=O)N1CCN(Cc2ccc(OCc3ccccc3)c(OC)c2)CC1	84.5
Cc1nc(C)c(C(=O)Nc2ccc(C)c(F)c2)o1	92
O=C(NC1CCCC1)c1ccc(S(=O)(=O)N2CCCC2)cc1	107
Cc1ccccc1-c1noc(N)c1C#N	110
Cc1cc(NC(=O)CCC(=O)N(CC(=O)NC2CCCC2)Cc2ccc(F)cc2)no1	101
CC1=Nn2c(nnc2-c2ccccn2)SC1	94
Cc1cc(C(=O)NCCCN2CCN(C3CCCCC3)CC2)n(-c2ccccc2)n1	94
Cc1nn(-c2ccc(Cl)cc2)c2sc(C(=O)N3CCN(c4ccccn4)CC3)cc12	103
O=C(Cn1nc(-c2ccc3c(c2)OCCO3)ccc1=O)Nc1ccc(N2CCOCC2)cc1	94
O=C(OCc1nnc(-c2ccc(Cl)cc2)o1)c1ccc(=O)n(Cc2ccccc2)n1	84.5
CCN(CC)S(=O)(=O)N1CCC(C(=O)NCC2COc3ccccc3O2)CC1 (stereo not drawn)	94
O=C(O)C1CC=CCC1C(=O)NCc1ccccc1 (stereo not drawn)	106
COc1ccc(S(=O)(=O)Nc2ccc(S(=O)(=O)N3CCCCC3)cc2)cc1OC	92
